Test target: Short transient receptor potential channel 4 (Mus musculus) (UniProt Q9QUQ5)
Sequence (Q9QUQ5 whole entry, looked up): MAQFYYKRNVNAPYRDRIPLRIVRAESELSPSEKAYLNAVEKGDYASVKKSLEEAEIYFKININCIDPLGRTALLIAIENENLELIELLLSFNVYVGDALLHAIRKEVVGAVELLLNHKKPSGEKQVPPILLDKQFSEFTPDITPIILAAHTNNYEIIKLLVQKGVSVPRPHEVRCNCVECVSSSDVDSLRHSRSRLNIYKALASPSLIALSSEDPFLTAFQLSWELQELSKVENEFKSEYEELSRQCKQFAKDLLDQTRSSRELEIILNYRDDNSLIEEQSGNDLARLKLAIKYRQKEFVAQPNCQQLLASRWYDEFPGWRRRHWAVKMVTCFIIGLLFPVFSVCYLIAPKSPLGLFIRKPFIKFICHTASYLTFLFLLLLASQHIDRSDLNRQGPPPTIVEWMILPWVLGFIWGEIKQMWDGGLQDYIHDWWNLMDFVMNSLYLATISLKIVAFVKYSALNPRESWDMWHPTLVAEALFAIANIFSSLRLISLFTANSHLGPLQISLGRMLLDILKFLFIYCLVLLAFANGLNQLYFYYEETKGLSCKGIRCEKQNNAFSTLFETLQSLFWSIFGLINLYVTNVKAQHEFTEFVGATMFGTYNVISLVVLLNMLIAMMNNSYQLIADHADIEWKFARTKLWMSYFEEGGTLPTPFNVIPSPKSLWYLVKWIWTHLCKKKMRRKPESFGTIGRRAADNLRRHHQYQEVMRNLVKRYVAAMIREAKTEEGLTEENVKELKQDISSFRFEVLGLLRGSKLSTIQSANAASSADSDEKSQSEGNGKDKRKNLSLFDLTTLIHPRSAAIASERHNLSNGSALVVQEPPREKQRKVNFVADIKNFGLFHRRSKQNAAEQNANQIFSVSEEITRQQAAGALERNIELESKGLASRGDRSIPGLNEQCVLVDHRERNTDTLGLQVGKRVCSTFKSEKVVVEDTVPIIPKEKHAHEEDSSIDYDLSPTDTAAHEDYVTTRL
Experimental details: TRPC4 positive allosteric modulators, dose response, cell-based, HEK293 TRPC4/mu-opioid, Fluo-4 calcium, EC20 DAMGO (AID 434941);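 also: calcium entry triggered by an EC20 dose of DAMGO at the co-expressed mu-opioid receptor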
Applied conditions: HEK293 TRPC4/mu-opioid cells, Fluo-4 calcium fluorescence; series mostly up to 20 µM
Potency and affinity values are given separately. Calls of active or inactive are those of the source.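 The calls were made as follows: active = earlier screen potentiator hit that boosts the TRPC4 ion channel at some dose, with a dose response; inactive = no potentiation, no dose response, or not a prior hit.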
Result type: outcome

COc1ccc(C(CNC(=O)c2cccc(NS(=O)(=O)c3ccc(C)c(F)c3)c2)N(C)C)cc1 (centres undefined) : inactive
CN(C)C(CNC(=O)CCc1c[nH]c2ccccc12)c1ccccc1 (centres undefined) : inactive
CC1(C)CC(=O)c2cc(C(=O)NCc3ccco3)c(=O)n(-c3ccc(Cl)cc3)c2C1 : inactive
CCCCC(c1nnnn1CC1CCCO1)N1CCN(Cc2ccccc2)CC1 (centres undefined) : inactive

---

Test system: TRPC4 beta (transient receptor potential cation channel C4), mouse
Experimental details: activators of mouse TRPC4 channel, confirmation, cell-based, Fluo4 calcium, HEK293 TRPC4beta/mu-opioid, duplicates, 10 µM (AID 2426)
Applied conditions: Fluo4 calcium fluorescence, at 10 µM
Calls of active or inactive are those of the source.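 Rule for the calls: active = fluorescence ratio normalized to control raised more than 50% in primary screen plus both repeat runs; inactive = the rest.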
Allowed answers: TRUE for active, FALSE for inactive

O=c1c2ccccc2[nH]c(=S)n1Cc1cccnc1 : FALSE

For this compound, state the assay outcome: O=c1c2cc(Br)ccc2nc(-c2ccc(Cl)cc2)n1O
TRUE

For this compound, state the assay outcome: COc1ccc(C(CNC(=O)C(C)c2ccc3cc(OC)ccc3c2)N(C)C)cc1 (centres undefined)
TRUE

For this compound, state the assay outcome: CCOC(=O)C1(CCOc2ccccc2)CCN(Cc2ccc3c(c2)OCCO3)CC1
FALSE

---

Test target: Potassium voltage-gated channel subfamily KQT member 1 (Homo sapiens) (UniProt P51787)
Sequence (P51787 whole entry, looked up): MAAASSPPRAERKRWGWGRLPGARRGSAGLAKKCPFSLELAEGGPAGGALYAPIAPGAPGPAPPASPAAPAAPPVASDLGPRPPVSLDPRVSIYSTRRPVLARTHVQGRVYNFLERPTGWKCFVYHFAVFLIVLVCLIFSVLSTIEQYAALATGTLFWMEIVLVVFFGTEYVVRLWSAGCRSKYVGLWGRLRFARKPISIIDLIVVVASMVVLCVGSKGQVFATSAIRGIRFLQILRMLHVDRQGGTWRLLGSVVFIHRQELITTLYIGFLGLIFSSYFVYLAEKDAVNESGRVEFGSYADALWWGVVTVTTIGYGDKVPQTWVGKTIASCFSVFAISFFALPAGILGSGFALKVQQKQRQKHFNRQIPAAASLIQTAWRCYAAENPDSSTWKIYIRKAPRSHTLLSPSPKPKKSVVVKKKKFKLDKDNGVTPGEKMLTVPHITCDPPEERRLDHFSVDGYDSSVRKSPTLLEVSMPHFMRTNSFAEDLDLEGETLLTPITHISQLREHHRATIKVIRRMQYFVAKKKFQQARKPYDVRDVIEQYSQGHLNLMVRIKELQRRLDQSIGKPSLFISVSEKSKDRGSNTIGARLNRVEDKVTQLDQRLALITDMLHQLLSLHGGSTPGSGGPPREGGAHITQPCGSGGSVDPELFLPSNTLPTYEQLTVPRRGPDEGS
Experimental details: KCNQ1 potassium channel potentiators, confirmation, FluxOR thallium flux, CHO cells, duplicates (AID 493007)
Applied conditions: KCNQ1 cell line, FluxOR thallium flux fluorescence, at 10 µM, % of reference activator effect, buffer zero
Activity calls are given as the source filed them.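 How the source made its calls: active means potentiation averaged over duplicate wells exceeding buffer-only control mean by more than 3 SD; inactive means the rest.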
Allowed answers: active, inactive

Known results for compounds:
Cc1ccc(/C=N/Nc2nc(C(C)(C)C)cs2)o1 : inactive
O=C(NC(=S)NCCC1=CCCCC1)c1ccccc1Br : active
CSC(=S)N/N=C/c1ccccc1 : active
O=C(NC(=S)Nc1cccc([N+](=O)[O-])c1)c1ccco1 : inactive

Turning now to a further record.
For this compound, state the assay outcome: O=C(CNS(=O)(=O)c1ccc([N+](=O)[O-])cc1)N/N=C\c1ccc(O)cc1
active

---

Test target: Potassium voltage-gated channel subfamily KQT member 2 (Rattus norvegicus) (UniProt O88943)
Sequence (O88943 whole entry, looked up): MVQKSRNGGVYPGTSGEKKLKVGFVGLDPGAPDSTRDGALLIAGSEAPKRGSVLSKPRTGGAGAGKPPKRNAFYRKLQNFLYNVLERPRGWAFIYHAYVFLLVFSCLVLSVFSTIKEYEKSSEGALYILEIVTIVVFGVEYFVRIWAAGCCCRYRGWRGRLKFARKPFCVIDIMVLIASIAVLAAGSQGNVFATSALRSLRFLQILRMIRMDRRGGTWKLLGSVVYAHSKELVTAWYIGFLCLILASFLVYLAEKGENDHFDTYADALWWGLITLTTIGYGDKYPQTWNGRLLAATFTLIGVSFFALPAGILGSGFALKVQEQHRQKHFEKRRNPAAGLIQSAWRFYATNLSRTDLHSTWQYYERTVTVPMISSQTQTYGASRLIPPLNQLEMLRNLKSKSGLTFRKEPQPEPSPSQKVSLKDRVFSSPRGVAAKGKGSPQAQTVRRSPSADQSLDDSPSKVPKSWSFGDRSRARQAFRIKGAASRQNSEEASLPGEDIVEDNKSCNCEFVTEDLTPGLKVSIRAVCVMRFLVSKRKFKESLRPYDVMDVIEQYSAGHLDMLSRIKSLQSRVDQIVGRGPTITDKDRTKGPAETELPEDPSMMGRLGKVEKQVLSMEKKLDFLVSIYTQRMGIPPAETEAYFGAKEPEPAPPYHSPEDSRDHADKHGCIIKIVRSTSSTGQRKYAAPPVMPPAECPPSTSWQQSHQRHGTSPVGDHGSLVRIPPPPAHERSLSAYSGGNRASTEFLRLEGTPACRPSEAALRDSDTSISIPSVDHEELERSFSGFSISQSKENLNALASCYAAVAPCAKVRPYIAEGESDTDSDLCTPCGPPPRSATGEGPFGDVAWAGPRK
Experimental details: rat KCNQ2 channel potentiation, selectivity assay for KCNQ1 potentiator project, KCNQ2-CHO-K1 cells (AID 493009);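 also: assay conditions were tuned for KCNQ1 rather than KCNQ2 modulators; signal is max minus min fluorescence divided by baseline after thallium stimulus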
Applied conditions: FluxOR thallium flux fluorescence, at 10 µM, scaled: buffer 0, activator control 100
Active and inactive are the calls of the source.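 Rule for the calls: active = mean duplicate potentiation above the buffer control mean plus 5 SD of buffer wells; inactive = the rest.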
Allowed answers: class 1 = active, class 0 = inactive

Known results for compounds:
COC(=O)c1sccc1NS(=O)(=O)c1ccc(F)cc1F : class 0
Cc1ccc(C2c3c(-c4ccccc4O)n[nH]c3C(=O)N2Cc2ccncc2)cc1 (configuration not stated) : class 0
CC1=CC(=O)C(C(C)C)=CC1=NC(=O)c1ccc(C)cc1 : class 0
COc1ccc(C(=O)NNC(=S)NC(=O)c2cc(-c3ccccc3)nc3ccccc23)cc1 : class 0
CCc1nccn1S(=O)(=O)c1ccc2ccc(C)cc2c1 : class 0
COC(=O)c1ccc(COC(=O)c2ccccn2)cc1 : class 1

For this compound, state the assay outcome: CCOC(=O)CC1=NS(=O)(=O)c2ccccc2N1
class 0

For this compound, state the assay outcome: CC(C)CSC1=NSC2=NC(=O)/C(=C\c3ccccc3)C(=N)N12
class 1

For this compound, state the assay outcome: CC(C)CSc1n[nH]c(=S)s1
class 1

For this compound, state the assay outcome: CCOc1ccc(N2CC(C(=O)Nc3cc(Cl)ccc3-n3cncn3)CC2=O)cc1 (configuration not stated)
class 0

For this compound, state the assay outcome: Cc1cccc(N=Cc2cc(Br)cc(Cl)c2O)c1
class 0

For this compound, state the assay outcome: CCC1CCC2(CC1)NNC(=S)NN2
class 0

For this compound, state the assay outcome: CN(CC(=O)Nc1ccc(F)c(F)c1F)C(=O)CC1OC(=O)c2ccccc21 (configuration not stated)
class 0

For this compound, state the assay outcome: O=S(=O)(Nc1ccccc1Cl)c1ccc(NS(=O)(=O)c2cccs2)cc1
class 0

For this compound, state the assay outcome: O=Cc1ccc2noc(-c3ccc(Cl)cc3)c2c1
class 0

For this compound, state the assay outcome: CC1CCN(S(=O)(=O)c2cccc(C(=O)N3CCN(c4ccc(F)cc4)CC3)c2)CC1
class 0

For this compound, state the assay outcome: COCCn1cnc2c1c(=O)n(CC#N)c(=O)n2Cc1ccccc1
class 0

For this compound, state the assay outcome: N#C/C=C1/NC(=O)c2ccccc2S1
class 1
